assayed.system: Deoxyuridine 5'-triphosphate nucleotidohydrolase, mitochondrial (Homo sapiens, UniProt P33316)
Sequence (P33316 whole entry): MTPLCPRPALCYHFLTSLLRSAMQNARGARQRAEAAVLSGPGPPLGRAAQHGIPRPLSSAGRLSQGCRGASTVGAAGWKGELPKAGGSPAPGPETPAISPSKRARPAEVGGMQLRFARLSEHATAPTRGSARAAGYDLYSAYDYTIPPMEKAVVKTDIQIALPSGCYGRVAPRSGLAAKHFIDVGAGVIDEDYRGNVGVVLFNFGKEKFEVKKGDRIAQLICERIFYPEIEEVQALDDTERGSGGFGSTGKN
measurement.description: Inhibition of human dUTPase
reported.property: pKi
Keep in mind that pKi stands for -log10 of concentration in molar terms.

Req: Could you share which pKi value was measured for O=c1ccn([C@H]2C[C@H](O)[C@@H](COP(=O)(O)CP(=O)(O)OP(=O)(O)OCc3ccccc3)O2)c(=O)[nH]1 ?
Resp: 6.52

====

assayed.system: Deoxyuridine 5'-triphosphate nucleotidohydrolase, mitochondrial (Homo sapiens, UniProt P33316)
pIC50: −log10 of the molar value.
Label 1.0 for high-side pIC50 (at or above 6) and 0.0 for low-side pIC50 (below it).

>  <record.smiles>
O=C(CCCn1ccc(=O)[nH]c1=O)NCC(c1ccccc1)c1ccccc1

>  <label.value>
0.0

$$$$
>  <record.smiles>
O=C(CCn1ccc(=O)[nH]c1=O)NC(c1ccccc1)c1ccccc1

>  <label.value>
0.0

$$$$
>  <record.smiles>
CC(C)(C)NC(=O)CCCn1ccc(=O)[nH]c1=O

>  <label.value>
0.0

$$$$
>  <record.smiles>
O=C(CCn1ccc(=O)[nH]c1=O)N1CCC[C@H]1C(O)(c1ccccc1)c1ccccc1

>  <label.value>
0.0

$$$$
>  <record.smiles>
COc1ccc(C(O)(c2ccc(OC)cc2)[C@@H]2CCCN2C(=O)CCCn2ccc(=O)[nH]c2=O)cc1

>  <label.value>
0.0

$$$$

Next item in the queue.
Req: Item O=C(CCCn1ccc(=O)[nH]c1=O)Nc1ccccc1 with pIC50 of 6 or above?
Resp: 0.0

====

As a worked illustration, we turn to pIC50 data collected for Deoxyuridine 5'-triphosphate nucleotidohydrolase, mitochondrial (Homo sapiens).
Keep in mind that pIC50 stands for -log10 of concentration in molar terms.

Known results for compounds:
>  <record.smiles>
CC(C)(CCc1ccccc1)NC(=O)CCCn1ccc(=O)[nH]c1=O

>  <assayed.system>
Deoxyuridine 5'-triphosphate nucleotidohydrolase, mitochondrial (Homo sapiens)

>  <pIC50>
4.68

$$$$
>  <record.smiles>
O=C(CCCn1ccc(=O)[nH]c1=O)N1CCC[C@H]1C(O)(c1cccc(F)c1)c1cccc(F)c1

>  <assayed.system>
Deoxyuridine 5'-triphosphate nucleotidohydrolase, mitochondrial (Homo sapiens)

>  <pIC50>
6.46

$$$$
>  <record.smiles>
O=c1ccn(CCCS(=O)(=O)N2CCC[C@H]2C(O)(c2ccccc2)c2ccccc2)c(=O)[nH]1

>  <assayed.system>
Deoxyuridine 5'-triphosphate nucleotidohydrolase, mitochondrial (Homo sapiens)

>  <pIC50>
5.03

$$$$
>  <record.smiles>
O=c1ccn(CCCS(=O)(=O)N2CCC[C@@H]2C(O)(c2ccccc2)c2ccccc2)c(=O)[nH]1

>  <assayed.system>
Deoxyuridine 5'-triphosphate nucleotidohydrolase, mitochondrial (Homo sapiens)

>  <pIC50>
6.49

$$$$
>  <record.smiles>
O=c1ccn([C@H]2C[C@H](O)[C@@H](COP(=O)(O)NP(=O)(O)OP(=O)(O)O)O2)c(=O)[nH]1

>  <assayed.system>
Deoxyuridine 5'-triphosphate nucleotidohydrolase, mitochondrial (Homo sapiens)

>  <pIC50>
4.82

$$$$
>  <record.smiles>
O=C(CCCn1ccc(=O)[nH]c1=O)N1CCC[C@H]1C(O)(c1cccc(-c2ccsc2)c1)c1cccc(-c2ccsc2)c1

>  <assayed.system>
Deoxyuridine 5'-triphosphate nucleotidohydrolase, mitochondrial (Homo sapiens)

>  <pIC50>
6.64

$$$$

Req: What value of pIC50 on Deoxyuridine 5'-triphosphate nucleotidohydrolase, mitochondrial (Homo sapiens) does O=C(CCCn1ccc(=O)[nH]c1=O)N1CCC[C@H]1C(O)(c1cccc(Cl)c1)c1cccc(Cl)c1 have?
Resp: 6.24

Req: What value of pIC50 on Deoxyuridine 5'-triphosphate nucleotidohydrolase, mitochondrial (Homo sapiens) does O=c1ccn(CCCS(=O)(=O)N2CCC[C@@H]2C(O)(c2ccc(F)cc2)c2ccc(F)cc2)c(=O)[nH]1 have?
Resp: 6.51

Req: What value of pIC50 on Deoxyuridine 5'-triphosphate nucleotidohydrolase, mitochondrial (Homo sapiens) does CN(CC(O)(c1ccccc1)c1ccccc1)C(=O)CCCn1ccc(=O)[nH]c1=O have?
Resp: 5.96
